# maps each entry to its IC50
Test system: Calpain activity in SH-SY5Y cells
Test: SH-SY5Y + AMC fluorescence assay (Suc-LLVY-AMC substrate)
Format: cell-based
Settings: read-out: SH-SY5Y + AMC IC50

>>> result("NC(=O)C(=O)C(Cc1ccccc1)NC(=O)[C@@H]1CC2(CC2)CN1c1ccccc1 (some centres unmarked)")
"10 to 25 µM"
>>> result("Cn1cc(C(=O)NC(CC(F)(F)F)C(=O)C(N)=O)c(-c2ccccc2)n1 (centres unmarked)")
"> 25 µM"
>>> result("Cc1cc(C(=O)NC(Cc2ccccc2)C(=O)C(N)=O)n(-c2ccc(C(F)(F)F)cn2)n1 (centres unmarked)")
"> 25 µM"

Input: // output IC50; input NC(=O)C(=O)C(Cc1c[nH]c2ccccc12)NC(=O)c1nsnc1-c1ccccc1 (centres unmarked) ; system Calpain activity in SH-SY5Y cells
Output: < 10 µM

Input: Look up and report measured IC50 (Calpain activity in SH-SY5Y cells) for the following compound: Cn1cc(C(=O)NC(Cc2ccccc2)C(=O)C(N)=O)c(Cn2ncc3cnccc32)n1 (centres unmarked)
Output: < 10 µM

Input: Give Calpain activity in SH-SY5Y cells IC50 for the following compound: "Cn1cc(C(=O)N[C@@H](Cc2ccccc2)C(=O)C(=O)NCc2ncco2)c(-c2ccccc2)n1"
Output: < 10 µM

Input: Param request: IC50 | system Calpain activity in SH-SY5Y cells | item "Cn1cc(C(=O)N[C@@H](Cc2c[nH]c3ccccc23)C(=O)C(N)=O)c(-c2ccccc2)n1"
Output: < 10 µM

Input: Enter measured IC50, system Calpain activity in SH-SY5Y cells, for the compound shown: O=CC(Cc1ccccc1)NC(=O)c1nsnc1-c1ccccc1 (centres unmarked)
Output: > 25 µM

====

Let's look at some molecules and their measured pIC50.
Target: Human Calpain 1/NS1 (Homo sapiens)
Sequence (P07384 whole entry): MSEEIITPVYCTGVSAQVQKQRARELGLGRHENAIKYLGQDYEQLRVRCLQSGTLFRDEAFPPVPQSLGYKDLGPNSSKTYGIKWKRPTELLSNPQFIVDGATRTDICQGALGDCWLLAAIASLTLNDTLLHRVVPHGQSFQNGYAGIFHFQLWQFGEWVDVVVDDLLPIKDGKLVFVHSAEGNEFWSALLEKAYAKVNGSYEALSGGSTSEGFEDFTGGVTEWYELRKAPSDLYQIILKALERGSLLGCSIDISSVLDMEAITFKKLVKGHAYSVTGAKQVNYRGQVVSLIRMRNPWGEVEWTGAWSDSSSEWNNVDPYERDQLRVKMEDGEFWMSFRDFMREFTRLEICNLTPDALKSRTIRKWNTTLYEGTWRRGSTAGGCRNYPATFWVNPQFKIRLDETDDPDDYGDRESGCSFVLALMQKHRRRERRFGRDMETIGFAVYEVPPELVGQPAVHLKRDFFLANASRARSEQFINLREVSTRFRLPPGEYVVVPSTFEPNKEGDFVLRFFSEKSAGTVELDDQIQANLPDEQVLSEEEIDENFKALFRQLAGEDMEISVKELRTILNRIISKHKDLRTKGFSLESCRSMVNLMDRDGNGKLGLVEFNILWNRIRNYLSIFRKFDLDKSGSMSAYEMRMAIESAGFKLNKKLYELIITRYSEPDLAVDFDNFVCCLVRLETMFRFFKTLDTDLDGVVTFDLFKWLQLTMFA
Sequence (P04632 whole entry partner): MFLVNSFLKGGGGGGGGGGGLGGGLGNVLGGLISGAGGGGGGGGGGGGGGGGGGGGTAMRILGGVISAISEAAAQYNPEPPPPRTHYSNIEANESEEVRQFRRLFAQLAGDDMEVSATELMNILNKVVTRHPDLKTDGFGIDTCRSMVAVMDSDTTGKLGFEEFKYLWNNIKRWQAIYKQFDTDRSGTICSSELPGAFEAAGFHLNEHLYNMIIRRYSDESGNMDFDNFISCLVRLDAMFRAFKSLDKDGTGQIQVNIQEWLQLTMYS
Assay: Calpain inhibition continuous fluorescence (FRET) assay, Human Calpain 1/NS1
Type: biochemical
Settings: Column A; read-out: Human Calpain 1/NS1 IC50
pIC50: −log10 of the molar value.

>>> result("Cc1cc(C(=O)N[C@@H](Cc2ccccc2)C(=O)C(N)=O)nn1-c1ncc(-c2ccccc2)o1")
"5.00 to 5.52"
>>> result("Cc1cc(C(=O)N[C@H](C=O)Cc2ccccc2)n(-c2ccncn2)n1")
"> 5.52"
>>> result("NC(=O)C(=O)[C@H](Cc1ccccc1)NC(=O)c1cn(C2CC2)nc1-c1ccccc1")
"> 5.52"

Input: Please respond with reported pIC50 (system Human Calpain 1/NS1 (Homo sapiens)) for "O=C(NC1CC1)C(=O)[C@H](Cc1ccccc1)NC(=O)c1cncn1-c1ccc(-c2ccccc2)nn1" .
Output: > 5.52

Input: Give pIC50 for this entry on Human Calpain 1/NS1 (Homo sapiens): "Cc1cc(C(=O)N[C@@H](Cc2ccccc2)C(=O)C(N)=O)n(-c2ccc(CNC(=O)Cc3ccccc3)cc2)n1"
Output: > 5.52

Input: For Human Calpain 1/NS1 (Homo sapiens), give the measured pIC50 of the entry C[C@@H]1C[C@@H](C(=O)NC(Cc2ccccc2)C(=O)C(N)=O)N(c2ccccc2)C1 (stereo partly drawn)
Output: > 5.52

Input: Write down the reported pIC50 (system: Human Calpain 1/NS1 (Homo sapiens)) of "O=C[C@H](Cc1ccccc1)NC(=O)[C@@H]1CCCN1c1nc2ccccc2o1"
Output: > 5.52

Input: Fetch value of pIC50 on Human Calpain 1/NS1 (Homo sapiens) for "NC(=O)C(=O)[C@H](Cc1ccccc1)NC(=O)c1conc1-c1ccc(F)cc1" .
Output: > 5.52
